TEST: Progesterone solubility study in different solvent systems
Assay type: physicochemical
RECORDED_CONDITIONS: oil or lipid, thermodynamic from solid; in LABRAFAC PG; room temperature, visual
ENDPOINT_NAME: solubility (mg/mL)
Answers are plain numbers, in mg/mL.

query: If you can, please state the reported solubility value of CC(=O)[C@H]1CC[C@H]2[C@@H]3CCC4=CC(=O)CC[C@]4(C)[C@H]3CC[C@]12C [progesterone, pregn-4-ene-3,20-dione] .
result: 41

* * *

TEST: Progesterone solubility study in different solvent systems
Format: physicochemical
RECORDED_CONDITIONS: organic solvent or mixture, thermodynamic from solid; in d-Limonene + TRANSCUTOL (40:60); room temperature, visual
ENDPOINT_NAME: solubility (mg/mL)
Answers are plain numbers, in mg/mL.

query: Endpoint output: solubility of `CC(=O)[C@H]1CC[C@H]2[C@@H]3CCC4=CC(=O)CC[C@]4(C)[C@H]3CC[C@]12C` . Value?
result: 102
